- TARGET_OR_TEST_SYSTEM: purified Z-AAT protein from human plasma (Homo sapiens (Human), UniProt P01009, E366K)
- Sequence (P01009 25-418 E366K limits assumed): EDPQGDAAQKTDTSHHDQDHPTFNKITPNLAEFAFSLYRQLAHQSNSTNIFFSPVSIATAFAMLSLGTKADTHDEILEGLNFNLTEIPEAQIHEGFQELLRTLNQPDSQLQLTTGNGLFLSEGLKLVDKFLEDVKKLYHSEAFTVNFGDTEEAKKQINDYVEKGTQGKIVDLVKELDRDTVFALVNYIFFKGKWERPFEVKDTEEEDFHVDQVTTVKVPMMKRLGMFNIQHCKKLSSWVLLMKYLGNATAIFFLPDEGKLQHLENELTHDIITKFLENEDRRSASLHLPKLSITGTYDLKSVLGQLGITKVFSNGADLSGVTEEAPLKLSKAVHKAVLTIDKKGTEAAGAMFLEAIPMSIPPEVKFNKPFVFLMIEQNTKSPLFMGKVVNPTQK
- TEST_DETAILS: Biochemical Assay (Z-AAT Elastase Activity Assay)
- CONDITION_LABEL: purified Z-AAT pre-incubated with compound 1 hour, then human neutrophil elastase and fluorescent substrate
Measured IC50 accompanies every entry in the list below.

Observe how each entry below is paired with its result.
>>> df
                                   molecule  reported_result
0  Cc1cc(-n2c(C(C)C)c(C3CC(F)(C(=O)O)C3)c3cc(O)ccc32)ccc1F (single isomer, unassigned) [Compound 150]           > 5 µM
1  COCC(C)(C)c1c(-c2ccc(C(=O)O)cc2)c2c(Cl)c(O)ccc2n1-c1ccc(F)cc1 [Compound 178]           < 2 µM
2  Cc1cc(-n2c([C@@H]3CCOC3)c([C@H]3C[C@H](C(=O)O)C3)c3cc(O)ccc32)ccc1F [Compound 84]          > 30 µM

Record O=C(O)[C@H]1CC2(C1)C[C@H](c1c(C3CCOCC3)n(-c3ccc(F)cc3)c3ccc(O)cc31)C2 (some centres unmarked) [Compound 51] , field IC50: > 30 µM

# molecule CC(C)c1c([C@H]2CC3(C[C@H](C(=O)O)C3)C2)c2cc(O)ccc2n1-c1ccc(F)c(F)c1 (some centres unmarked) [Compound 57] ; its IC50 = < 2 µM

Notebook: CO[C@]1(C(=O)O)C[C@@H](c2c(C(C)C)n(-c3ccc(F)c(C)c3)c3ccc(O)cc32)C1 [Compound 67] , IC50 read as > 30 µM

// sample Cc1cc(-n2c(C)c(C#N)c3cc(O)cc(C)c32)ccc1F [Compound 208] , its IC50 was > 30 µM

For reference, reported IC50 for O=C(O)[C@H]1C[C@H](c2c(C3CCOCC3)n(-c3ccc(F)c(F)c3)c3ccc(O)cc32)C1 [Compound 116] stands at > 30 µM
